# Tested target: human GLP-1 receptor (human, UniProt P43220 24-463)
# Experiment: cell-based or functional assay
Starred links: 1 amine or outer side, 2 acyl side, 3 side chain; linkers in the order of their positions; H or OH if unused. Non-standard residues stand in square brackets, D forms with d. Groups on a side chain read outwards from the residue. *: point of attachment. Decanoyl(10-(4-HOOC-PhO)) = O=C(O)c1ccc(OCCCCCCCCCC(=O)*)cc1; C20 diacid = O=C(O)CCCCCCCCCCCCCCCCCCC(=O)*; C18 diacid = O=C(O)CCCCCCCCCCCCCCCCC(=O)*; C16 diacid = O=C(O)CCCCCCCCCCCCCCC(=O)*; γGlu = O=C(O)[C@H](CCC(=O)[*:2])N[*:1]; C14 diacid = O=C(O)CCCCCCCCCCCCC(=O)*; Trx = NC[C@H]1CC[C@H](C(=O)O)CC1; AEEA = NCCOCCOCC(=O)O; Aib = CC(C)(N)C(=O)O
Below, each entry is listed with its recorded Human GLP-1R potency [EC50 (pM)].
Form entry: enter the amount, then its unit.

Look over these answered cases.
INSERT INTO assay_data (binder, assay_endpoint, observed_measurement) VALUES
  ('Compound 0438 (not fully specified (residue 31)) peptide: H[Aib]EGTFTSDVSSYLEEQAAREFIEWLVRGRKEASELSTAALGRLSAELHELATLPRTETGSGSP-NH2', 'Human GLP-1R potency [EC50 (pM)]', '11.8 pM'),
  ('Compound 0097 (peptide) peptide: HGEGTFTSDVSSYLEEQAARK([AEEA-AEEA-γGlu-Decanoyl(10-(4-HOOC-PhO))])FIEWLVRGK([AEEA-AEEA-γGlu-Decanoyl(10-(4-HOOC-PhO))])GEGGGGGEASELSTAALGRLSAELHELATLPRTETGSGSP-NH2', 'Human GLP-1R potency [EC50 (pM)]', '10 pM');

**Q:** Which Human GLP-1R potency [EC50 (pM)] is listed for Compound 0561 (peptide) peptide: H[Aib]EGTFTSDVSSYLEEQAARK([AEEA-AEEA-γGlu-Trx-C20 diacid])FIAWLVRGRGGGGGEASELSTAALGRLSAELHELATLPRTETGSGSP-NH2 ?
**A:** 17.5 pM

**Q:** Which Human GLP-1R potency [EC50 (pM)] is listed for Compound 0578 (not fully specified (residue 21)) peptide: H[Aib]EGTFTSDVSK([AEEA-AEEA-γGlu-C16 diacid])YLEEQAARKFIAWLVRGRQEASELSTAALGRLSAELHELATLPRTETGSGSP-NH2 ?
**A:** 2.5 pM

**Q:** Which Human GLP-1R potency [EC50 (pM)] is listed for Compound 0280 (peptide) peptide: H[Aib]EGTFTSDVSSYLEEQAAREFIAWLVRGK([AEEA-AEEA-γGlu-C16 diacid])GGGGGEASELSTAALGRLSAELHK([AEEA-AEEA-γGlu-C16 diacid])LATLPRTETGSGSP-NH2 ?
**A:** 34.3 pM

**Q:** Which Human GLP-1R potency [EC50 (pM)] is listed for Compound 0635 (not fully specified (residue 21)) peptide: H[Aib]EGTFTSDVSK([AEEA-AEEA-γGlu-C14 diacid])YLEEQAARKFIAWLVRGRK([AEEA-AEEA-γGlu-C14 diacid])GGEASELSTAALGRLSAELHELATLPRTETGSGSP-NH2 ?
**A:** 7.3 pM

**Q:** Which Human GLP-1R potency [EC50 (pM)] is listed for Compound 0019 (peptide) peptide: H[Aib]EGTFTSDVSSYLEGQAAK([AEEA-AEEA-γGlu-C18 diacid])EFIAWLVRGRGGQEPGQEPEASELSTAALGRLSAELHELATLPRTETGSGSP-NH2 ?
**A:** 13.7 pM

All values here come from patent US20260132182A1.
